biological target: Dog Kidney Na+, K+-ATPase (Canis lupus familiaris, UniProt P50997); test: Dog kidney Na+,K+-ATPase inhibition (hydrolysis of 32P-ATP); type: biochemical
Where a name gives a salt, the structure may show the parent alone.
Output met for records whose IC50 is lower than 2000 nM, not met for records at or above 2000 nM.

| molecule | group_label |
| --- | --- |
| CC1(C)/C(=N/O[C@@H]2CCNC2)CC[C@@]2(C)C1CC[C@@H]1[C@@H]2CC[C@]2(C)C(=O)CC[C@@H]12 (stereo partly shown) [I-ao, fumarate] | met |
| CC1=C2CC[C@H]3[C@@H]4CC[C@H](O)[C@@]4(C)CC[C@@H]3[C@@]2(C)CC/C1=N\OCCN [I-aa, hydrochloride] | not met |
| C[C@]12CC[C@H]3[C@@H](CC(=O)C4C/C(=N\O[C@@H]5CCNC5)[C@H](F)C[C@@]43C)[C@@H]1CC[C@@H]2O (stereo partly shown) [I-bi, fumarate] | met |
| CC1(C)/C(=N/OCCCN)CC[C@@]2(C)C1CC[C@H]1[C@@H]3CC[C@H](O)[C@@]3(C)CC[C@@H]12 (stereo partly shown) [I-ai, fumarate] | met |
| C[C@]12CC[C@H]3[C@@H](CCC4C/C(=N\OCCN)[C@H](F)C[C@@]43C)[C@@H]1CC[C@@H]2O (stereo partly shown) [I-bf, fumarate] | not met |
| C[C@]12CC/C(=N\O[C@@H]3CCNC3)[C@@H](F)C1CC[C@@H]1[C@@H]2CC[C@]2(C)C(=O)CC[C@@H]12 (stereo partly shown) [I-bl, fumarate] | met |
| C[C@]12CC/C(=N\O[C@@H]3CCNC3)[C@@H](O)C1CC[C@@H]1[C@@H]2CC[C@]2(C)C(=O)CC[C@@H]12 (stereo partly shown) [I-bn, fumarate] | not met |
| C[C@]12CC[C@H]3[C@@H](CCC4C/C(=N\O[C@@H]5CCNC5)[C@H](F)C[C@@]43C)[C@@H]1CC[C@@H]2O (stereo partly shown) [I-bg, fumarate] | met |
| CC1(C)/C(=N/O[C@@H]2CCNC2)CC[C@]2(C)[C@H]3CC[C@]4(C)C(=O)CC[C@H]4[C@@H]3CC(=O)[C@@]12O [I-au, fumarate] | not met |
| CC[C@@H]1/C(=N/O[C@@H]2CCNC2)CC[C@@]2(C)C1CC[C@H]1[C@@H]3CC[C@H](O)[C@@]3(C)CC[C@@H]12 (stereo partly shown) [I-bw, fumarate] | met |
| CC1(C)/C(=N/O[C@@H]2CCNC2)CC[C@]2(C)[C@H]3CC[C@]4(C)[C@@H](O)CC[C@H]4[C@@H]3CC[C@@]12O [I-by, hydrochloride] | not met |
| CC1(C)/C(=N/OCCN)CC[C@@]2(C)C1CC[C@@H]1[C@@H]2CC[C@]2(C)C(=O)CC[C@@H]12 (stereo partly shown) [I-am, fumarate] | met |

---

Recorded pIC50, one value per entry.
biological target: Dog Kidney Na+, K+-ATPase (Canis lupus familiaris); assay: Dog kidney Na+,K+-ATPase inhibition (hydrolysis of 32P-ATP); assay type: biochemical
pIC50: −log10 of the molar value. Structures can show the parent of a compound that is named as a salt.

| molecule | pIC50 |
| --- | --- |
| C[C@]12C[C@@H](F)/C(=N/O[C@@H]3CCNC3)CC1CC[C@@H]1[C@@H]2CC[C@]2(C)C(=O)CC[C@@H]12.Cl (stereo partly drawn) [I-bh, hydrochloride] | 5.96 |
| CC1(C)/C(=N/OCCCN)CC[C@@]2(C)C1CC[C@@H]1[C@@H]2CC[C@]2(C)C(=O)CC[C@@H]12 (stereo partly drawn) [I-an, fumarate] | 5.82 |
| CNCCCON=C1CCC2(C)C3CCC4(C)C(O)CCC4C3CCC2C1(C)C (stereo not drawn) | 5.85 |
